# target under test: L-lactate dehydrogenase (Plasmodium falciparum (isolate CDC / Honduras)) (UniProt Q27743)
# Sequence (Q27743 whole entry, looked up): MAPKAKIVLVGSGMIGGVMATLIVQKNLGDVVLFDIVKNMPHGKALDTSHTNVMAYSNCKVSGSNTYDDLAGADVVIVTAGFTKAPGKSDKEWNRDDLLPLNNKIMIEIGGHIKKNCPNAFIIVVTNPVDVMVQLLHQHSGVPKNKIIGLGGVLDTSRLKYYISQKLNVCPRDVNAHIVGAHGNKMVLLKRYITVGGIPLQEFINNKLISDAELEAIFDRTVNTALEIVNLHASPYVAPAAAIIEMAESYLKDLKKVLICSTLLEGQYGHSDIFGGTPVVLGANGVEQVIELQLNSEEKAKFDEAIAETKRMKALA
# assay protocol: PfLDH activity inhibition – cell lysate, 3D7 strain, counter-screen for P. falciparum growth inhibition project (AID 2304);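 note: 0% = vehicle and 100% = reference inhibitor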
# reported conditions: P. falciparum 3D7 crude extract, LDH APAD/NBT absorbance; at 2 µM; hits give high values
measured quantity: inhibition (%)
Give just the number in %; leave the unit off.

Lookup: Request - read-out inhibition | tested on L-lactate dehydrogenase (Plasmodium falciparum (isolate CDC / Honduras)) (UniProt Q27743) | compound COc1ccc(NC(=O)[C@H](CC(C)C)Nc2cc(C)nc(NCCc3ccc(F)cc3)n2)cc1
Found: -3

Lookup: Record Cc1cc2cc(/C=C/C(=O)NC3CCC(CCN4CCc5ccc(C#N)cc5CC4)CC3)ccc2[nH]1 (stereo not given) : what is its inhibition with L-lactate dehydrogenase (Plasmodium falciparum (isolate CDC / Honduras)) (UniProt Q27743)?
Found: -1

Lookup: # get_value(readout= inhibition, system= L-lactate dehydrogenase (Plasmodium falciparum (isolate CDC / Honduras)) (UniProt Q27743)) for NC(N)=NN=Cc1c2ccccc2c(Cl)c2c(Cl)cccc12
Found: -3

Lookup: Find the measured inhibition: item CCSc1nnc(C2CCCN(CC(=O)Nc3cc(C(F)(F)F)ccc3Cl)C2)n1CC (stereo not given) , target or system L-lactate dehydrogenase (Plasmodium falciparum (isolate CDC / Honduras)) (UniProt Q27743).
Found: 5

Lookup: Any idea what inhibition came out for O=C(/C=C/c1ccc(Cl)c(Cl)c1)NCCCCCN1CCC(NC(=O)Nc2ccc(C(F)(F)F)cc2)C1 (stereo not given) on L-lactate dehydrogenase (Plasmodium falciparum (isolate CDC / Honduras)) (UniProt Q27743)?
Found: -2

Lookup: // map O=c1ccc2ccc(F)c3c2n1CC3CN1CCC(NCc2cccc(-c3cccs3)c2)CC1 (stereo not given) to recorded inhibition (system: L-lactate dehydrogenase (Plasmodium falciparum (isolate CDC / Honduras)) (UniProt Q27743))
Found: 0

Lookup: API: value(readout= inhibition, system= L-lactate dehydrogenase (Plasmodium falciparum (isolate CDC / Honduras)) (UniProt Q27743), query= O=C(NC1CC1)c1ccc(N2CCC(c3ccccc3)CC2)nc1 )
Found: 1

Lookup: Write down the reported inhibition of Cn1ccnc1Sc1ncccc1[N+](=O)[O-] , test system: L-lactate dehydrogenase (Plasmodium falciparum (isolate CDC / Honduras)) (UniProt Q27743).
Found: -3

Lookup: Requested read-out inhibition, target or system L-lactate dehydrogenase (Plasmodium falciparum (isolate CDC / Honduras)) (UniProt Q27743), entry O=C1COC2(CN1C1CCN(Cc3ccc(O)c(Cl)c3)C1)c1ccccc1-c1ccccc12 (stereo not given)
Found: 3

Lookup: Give inhibition (L-lactate dehydrogenase (Plasmodium falciparum (isolate CDC / Honduras)) (UniProt Q27743)) of the following compound: COc1cc(F)c2ncc(Cl)c(CCN3CCC(NCc4ccc5c(c4)NC(=O)CS5)CC3)c2c1
Found: -6

----------
Would you mind telling me the reported growth inhibition of each entry?
# assay protocol: antimalarial activity against Dd2 strain (AID 2302);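 note: 0% = DMSO untreated growth and 100% = chloroquine plus artemisinin killed control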
# reported conditions: P. falciparum Dd2 in RBCs, LDH growth readout, 72 h; at 2 µM; hits give high values
All answers are understood in %, so give the number only.

Lookup: Could you share which growth inhibition value was measured for CC1CCN(Cc2c(O)ccc3c(=O)c(-c4nc5ccccc5s4)c(N)oc23)CC1 ?
Found: 99

Lookup: Consider the molecule COC(=O)c1ccc2nc(-c3ccc(C(=O)NCc4ccc(Cl)c(Cl)c4)cc3)[nH]c2c1 and give its measured growth inhibition.
Found: 3

Lookup: I am curious: what growth inhibition value has been reported for O=C(O)c1cc(C(F)(F)F)co1 ?
Found: 19

Lookup: Endpoint output: growth inhibition of Fc1ccc(-c2csc3ncnc(Cl)c23)cc1 . Value?
Found: 95

Lookup: Which growth inhibition is listed for CCc1ccc(OCCCON2C(N)=NC(N)=NC2(C)C)cc1 ?
Found: 95

Lookup: Given the entry COc1ccc(-c2ccccc2OCCCNc2nc(NCCc3ccc(O)cc3)nc(N3CCNCC3)n2)cc1 , report its measured growth inhibition.
Found: 3

Lookup: I am curious: what growth inhibition value has been reported for COc1cc(-n2cnc3cc(-c4ccc(Cl)cc4)sc3c2=O)ccc1OCCN1CCC(c2cccc(NC(C)=O)c2)CC1 ?
Found: 80

Lookup: Consider the molecule shown here: CN1CCC(N2CCN(Cc3cccc(-c4ccc(-c5nc6ccc(C(F)(F)F)cc6[nH]5)cc4)c3)CC2)CC1 What is its recorded growth inhibition?
Found: 91

Lookup: Quick one: growth inhibition for CN1CCN(c2ccnc3ccc(NC(=O)Nc4cccc5ccccc45)cc23)CC1 ?
Found: 96

Lookup: # input molecule: CCc1ccc(C2CCN(CCCCNC(=O)c3ccc(NC(=O)c4ccc(Cl)cc4)cc3)CC2)c(OC)c1 ; wanted: its growth inhibition
Found: 80

----------
# target under test: L-lactate dehydrogenase (Plasmodium falciparum (isolate CDC / Honduras)) (UniProt Q27743)
# assay protocol: PfLDH activity inhibition – cell lysate, 3D7 strain, counter-screen for P. falciparum growth inhibition project (AID 2304);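 note: 0% = vehicle and 100% = reference inhibitor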
# reported conditions: P. falciparum 3D7 crude extract, LDH APAD/NBT absorbance; at 2 µM; hits give high values
Record form. Attribute: inhibition. Fill in for each entry.
Write it as a number; the unit % goes unstated.

Lookup: Entry Cc1[nH]c(C)c(-c2ccc(OCc3cc(C(F)(F)F)cc(C(F)(F)F)c3)nc2)c(=O)c1Br , system L-lactate dehydrogenase (Plasmodium falciparum (isolate CDC / Honduras)) (UniProt Q27743): what inhibition was measured?
Found: -2

Lookup: For the record Cc1[nH]c(C)c(-c2ccc(-c3ccc4c(c3)OCO4)nc2)c(=O)c1Br , what value of inhibition is listed for L-lactate dehydrogenase (Plasmodium falciparum (isolate CDC / Honduras)) (UniProt Q27743)?
Found: -8

Lookup: Please state recorded inhibition (tested on L-lactate dehydrogenase (Plasmodium falciparum (isolate CDC / Honduras)) (UniProt Q27743)) of CN(C)CCC(O)(c1ccc(Br)cc1)c1cccnc1 (stereo not given)
Found: 5

Lookup: Entry O=C(NCCCCCN1CCC(c2c[nH]c3ccccc23)CC1)Nc1cccc(C(F)(F)F)c1 , system L-lactate dehydrogenase (Plasmodium falciparum (isolate CDC / Honduras)) (UniProt Q27743): what inhibition was measured?
Found: -1

Lookup: Provide value of inhibition for this record tested with L-lactate dehydrogenase (Plasmodium falciparum (isolate CDC / Honduras)) (UniProt Q27743): CCNc1cc(C(=O)N[C@@H](Cc2ccccc2)[C@H](O)CNC(C)C)cc(N2CC(c3ccccc3)CCS2(=O)=O)c1 (stereo not given in full)
Found: -1

Lookup: Fill in the recorded inhibition for this molecule, with L-lactate dehydrogenase (Plasmodium falciparum (isolate CDC / Honduras)) (UniProt Q27743) as test system: O=C(n1c(-c2cc3ccccc3n2C(=O)C(F)(F)F)cc2ccccc21)C(F)(F)F
Found: 5

Lookup: Field: inhibition (L-lactate dehydrogenase (Plasmodium falciparum (isolate CDC / Honduras)) (UniProt Q27743)). Entry: C[C@H]1CN(Cc2cccc(-c3cc(CNC(=O)c4cccc(C(=O)c5ccc(Cl)c(Cl)c5)c4)ccc3F)c2)CCN1
Found: 2

Lookup: Query the reported inhibition for L-lactate dehydrogenase (Plasmodium falciparum (isolate CDC / Honduras)) (UniProt Q27743); item: CC(C)CNCc1ccc(-c2cccc(CN(C(=O)NCCc3ccccc3)C3CCN(Cc4ccccc4)CC3)c2)cc1
Found: -1

Lookup: Lab request: please report inhibition under test system L-lactate dehydrogenase (Plasmodium falciparum (isolate CDC / Honduras)) (UniProt Q27743) for Cc1cc(N[C@@H](CC(C)C)C(=O)NCCCOC(C)C)nc(NCCc2ccc(F)cc2)n1
Found: -2

Lookup: API: value(readout=inhibition, system=L-lactate dehydrogenase (Plasmodium falciparum (isolate CDC / Honduras)) (UniProt Q27743)) for record Cc1cccc2[nH]c(-c3ccc(-c4ccc(CN5CCN(c6ccncc6)CC5)cc4)s3)nc12
Found: 2

Lookup: Given the entry Cc1noc(C)c1-c1ccc2c(Nc3ccc(C#N)cc3)c(C(N)=O)cnc2c1 , what inhibition was observed with L-lactate dehydrogenase (Plasmodium falciparum (isolate CDC / Honduras)) (UniProt Q27743)?
Found: 7

Lookup: Lab note: need inhibition for OC(CNCc1ccco1)Cn1c2ccc(Br)cc2c2cc(Br)ccc21 (stereo not given) on L-lactate dehydrogenase (Plasmodium falciparum (isolate CDC / Honduras)) (UniProt Q27743), anyone have it?
Found: -3

Lookup: Under L-lactate dehydrogenase (Plasmodium falciparum (isolate CDC / Honduras)) (UniProt Q27743): inhibition value of COc1ccccc1N1CCN(C(C(=O)NCc2cccc(F)c2)c2ccc(C)cc2)CC1 (stereo not given) ?
Found: 1

Lookup: So what inhibition did Cc1nc2ccc3ccc(CNc4ccc(C#N)cc4)cc3c2c(=O)[nH]1 get with L-lactate dehydrogenase (Plasmodium falciparum (isolate CDC / Honduras)) (UniProt Q27743)?
Found: 8

Lookup: Item Cc1cc(N)c2cc(NC(=O)c3ccc4ccccc4c3)ccc2n1 with L-lactate dehydrogenase (Plasmodium falciparum (isolate CDC / Honduras)) (UniProt Q27743) - inhibition?
Found: 1

Lookup: Which measured inhibition belongs to Cc1cc(N[C@@H](CC(C)C)C(=O)Nc2ccccc2)nc(Nc2ccccc2)n1 , tested on L-lactate dehydrogenase (Plasmodium falciparum (isolate CDC / Honduras)) (UniProt Q27743)?
Found: -1

Lookup: Recorded inhibition for Cc1cc(N2Cc3ccccc3C2)nc(Nc2cccc(C#N)c2)n1 with L-lactate dehydrogenase (Plasmodium falciparum (isolate CDC / Honduras)) (UniProt Q27743), please?
Found: -2

Lookup: Provide value of inhibition for this record tested with L-lactate dehydrogenase (Plasmodium falciparum (isolate CDC / Honduras)) (UniProt Q27743): COc1cc(C)nc2ccc(NC(=O)Nc3cccc4ccccc34)cc12
Found: -3

Lookup: API: value(readout=inhibition, system=L-lactate dehydrogenase (Plasmodium falciparum (isolate CDC / Honduras)) (UniProt Q27743)) for record CCOC(=O)c1cn(CC)c2cc(N(C)CCc3ccc(OC)c(OC)c3)c(F)cc2c1=O
Found: 4

Lookup: Kindly state the measured inhibition obtained for Oc1ccc2[nH]c(-c3cccc(F)c3)nc2c1CN1CCCC1 with L-lactate dehydrogenase (Plasmodium falciparum (isolate CDC / Honduras)) (UniProt Q27743).
Found: 5
